# measurement notes: chemical genetic growth profiling, strain panel (AID 1159580);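 further: tested at 20 µM; growth read once vehicle control cultures reached saturation at 30 °C; 1 = growth at the plate median or of vehicle wells; lower values mean less growth of the strain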
# measurement setup: S. cerevisiae deletion strains, growth OD, locus YER167W, strain BCK2, stronger effect = lower value
Among all 5,500 compounds or so, about 2,000 (36%) were called active. Not shown: some 18% with an inconclusive outcome. The list shows a part of the results.
recorded metric: normalized growth
Enter a number only.

Guide cases for normalized growth, answers given:
CCOC(=O)c1c(C)cc(O)cc1O
0.941
C=C(C)[C@H]1COc2cc3oc(=O)ccc3cc2O1
0.671
CC/C(=C(/CC)c1ccc(O)cc1)c1ccc(O)cc1
0.984
O=c1c(O)c(-c2ccc(O)cc2O)oc2cc(O)cc(O)c12
0.996
CC(C)N(CCC(C(N)=O)(c1ccccc1)c1ccccn1)C(C)C (centres undefined)
0.986

Asked: Returns the measured normalized growth for the input compound. Input: C[C@]12CCC3c4ccc(OS(=O)(=O)O)cc4CCC3C1CC[C@H]2O (some centres undefined)
Given back: 0.987

Asked: Returns the measured normalized growth for the input compound. Input: Cc1cc(OC(=O)c2c(C)cc(O)cc2O)cc(O)c1C(=O)O
Given back: 1.01

Asked: Returns the measured normalized growth for the input compound. Input: CCC(N)C(O)c1ccc(O)c(O)c1 (centres undefined)
Given back: 1.03

Asked: Returns the measured normalized growth for the input compound. Input: CCC(=O)c1c(O)cc(O)cc1O
Given back: 1.01

Asked: Returns the measured normalized growth for the input compound. Input: CC(=O)OC1CN2CCC1CC2 (centres undefined)
Given back: 1

Asked: Returns the measured normalized growth for the input compound. Input: Cc1ccccc1OCC(O)CO (centres undefined)
Given back: 1.01

Asked: Returns the measured normalized growth for the input compound. Input: NC(N)=NC(=O)c1nc(Cl)c(N2CCCCCC2)nc1N
Given back: 1

Asked: Returns the measured normalized growth for the input compound. Input: COC(=O)[C@]1(C)CCC[C@]2(C)c3ccc(C(C)C)cc3C(=O)CC12 (some centres undefined)
Given back: 0.997

Asked: Returns the measured normalized growth for the input compound. Input: CCC(c1ccc(O)cc1)C(CC)c1ccc(O)cc1 (centres undefined)
Given back: 0.972
